Sourced from patent US20250282885A1

- Tgt: T1, human Sdc2 (human, UniProt P34741 19-144, limits assumed)
- T1 construct: Antigen of the Octet tandem binning, loaded on biosensors at 100 nM; also called huSdc2; hSdc2
- Test: Octet tandem binning; saturating Ab f4 19844-R3-P3-C11

- Binder: "19838-6-N03-A (antibody, IgG1, V domains shown) VH: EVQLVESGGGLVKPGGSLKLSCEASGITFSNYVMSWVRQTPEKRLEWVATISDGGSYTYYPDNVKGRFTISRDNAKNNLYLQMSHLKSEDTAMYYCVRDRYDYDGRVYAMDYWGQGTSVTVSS VL: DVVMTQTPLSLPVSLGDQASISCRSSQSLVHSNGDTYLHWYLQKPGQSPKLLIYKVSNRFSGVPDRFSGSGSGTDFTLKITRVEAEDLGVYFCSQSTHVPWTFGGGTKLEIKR"
  raw competing-Ab binding signal: 0.197
